Parameter IC50: see the listing below.
- system_under_test: Mouse soluble TWEAK (mouse) (UniProt O54907)
- assay_text: receptor interaction ELISA: antibody pre-incubated with mouse soluble TWEAK, binding to coated mouse Fn14:Fc
readout_label: IC50 (ng/mL)

>>> endpoint_result("Antibody 15 (antibody, V domains shown) VH: QVQLQESGPGLVKPSETLSLTCAVSGYSIRSGYWWSWIRQPPGKGLEWIGQIYNKGNTDNNPALKSRVTISVDTSKNQFSLKLSSVTAADTAVYYCARVFWDDAYFDVWGQGTMVTVSS VL: EIVLTQSPATLSLSPGERATLSCKASQSVSIGPIHLMHWYQQKPGQAPRLLIYGASNPESGIPARFSGSGSGTDFTLTISSLEPEDFAVYYCQQGKESPRTFGQGTKLEIK")
5
>>> endpoint_result("TW202 (antibody, V domains shown) VH: QLQLQESGLGLVKPSQSLTLTCSVTGFSITTPDYSWHWIRQLPGQTLEWMGFLYYEGDTYYNPSLKSRISIARDASKNQFFLQLKAVTTEDTATYFCARRKYSGYGNWFAYWGQGTLVTVSL VL: QPVLTQSPSASASLRASVKLTCTLSSQHSTYYIEWYQQRPDKAPKYVMYLDSDGSHIKGDGIPDRFSGSSSGAHRYLSISNLQPEDEAIYHCGVYDSTAGAVFGSGTQLTVLG")
9
>>> endpoint_result("Antibody 25 (antibody, V domains shown) VH: QVQLQESGPGLVKPSETLSLTCAVSGYSIRSGYWWSWIRQQPGKGLEWIGQIYNKGNTDNNPALKSQVTISVDTSKNQFSLKLSSVTAADTAVYYCARVFWDDAYFDVWGQGTMVTVSS VL: EIVLTQSPGTLSLSPGERATLSCKASQSVSIGPIHLMHWYQQKPGQAPRLLIYGASNPESGIPDRFSGSGSGTDFTLTISRLEPEDFAVYYCQQGKESPRTFGQGTKLEIK")
18
>>> endpoint_result("Antibody 24 (antibody, V domains shown) VH: QVQLQESGPGLVKPSETLSLTCTVSGYSIRSGYWWSWIRQPPGKGLEWIGQIYNKGNTDNSPSLKSRVTISVDTSKNQFSLKLSSVTAADTAVYYCARVFWDDAYFDVWGQGTMVTVSS VL: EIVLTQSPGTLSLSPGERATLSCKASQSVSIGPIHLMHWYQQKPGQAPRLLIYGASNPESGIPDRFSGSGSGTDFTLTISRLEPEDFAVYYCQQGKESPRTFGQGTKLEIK")
8
>>> endpoint_result("Antibody 21 (antibody, V domains shown) VH: QVQLQESGPGLVKPSETLSLTCAVSGYSIRSGYWWSWIRQPPGKGLEWIGQIYNKGNTDNNPALKSRVTISVDTSKNQFSLKLSSVTAADTAVYYCARVFWDDAYFDVWGQGTMVTVSS VL: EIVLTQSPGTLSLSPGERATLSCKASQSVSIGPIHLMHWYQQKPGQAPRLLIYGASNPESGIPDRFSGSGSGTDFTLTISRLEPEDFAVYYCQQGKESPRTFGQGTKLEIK")
5
